- Test system: MS2 coat protein
- method.description: apparent KD of MS2 coat protein, switch ON state; designed switch direction (-1 OFF switch, 1 ON switch): -1; higher = weaker reporter binding
- measurement.parameters: FMN input: 0 or 200 uM; Eterna round: R93 (includes R88 designs)
Quick rule for you: apparent KD of MS2 coat protein at 60 nM or higher means criterion met, lower means criterion not met.

Solved entries (count: 5):
Decide: is the reported value of apparent KD of MS2 coat protein for CUCAUGUCAGGAUAUAGCCACAUGAGGAUCACCCAUGUGGACUAGAAGGGACAUGAGGAUCACCCAUGUAUGAA equal to or greater than 60 nM?
criterion not met

Decide: is the reported value of apparent KD of MS2 coat protein for CUCUUGUGAGGAUAUGCAAGAAAAGAAAAGAAAGAAAAGAAGCAGAAGGCACAUGAGGAUCACCCAUGUAAGAA [EteRNA is fun!] equal to or greater than 60 nM?
criterion not met

Decide: is the reported value of apparent KD of MS2 coat protein for AAGACUACAGGAUAUACAUGAGGAUCACCCAUGUAACUGACAAGUAGAUGACGGAGAAGUAGAAGGGUAGUCAA [Ruby 36] equal to or greater than 60 nM?
criterion not met

Decide: is the reported value of apparent KD of MS2 coat protein for AAGAAGGAAGGAUAUACAUGAGGAUCACCCAUGUAAAAGAAAGAGGGAAAAGAGAAAAGUAGAAGGUCCAAGAA [Ptolemy V Epiphanes] equal to or greater than 60 nM?
criterion not met

Decide: is the reported value of apparent KD of MS2 coat protein for AACAUACAUGAGGAUCACCCAUGUCAGGAUAUGCCGGGUUAGAACCAACUAAAAAAACGUAGAAGGGACAAAAA [Bilbo Confounded 5 - Jieux - Exclusion 1] equal to or greater than 60 nM?
criterion met

Others:
Decide: is the reported value of apparent KD of MS2 coat protein for AAAUGCUGAGGAUAUACAUGAGGAUCACCCAUGUAAAAUAAAUAAUGGAUGUAAACGUGUAGAAGGCAGCAUAA [Exclusion 3.14b (FMN+ favored )] equal to or greater than 60 nM?
criterion met
